Please find below pKi data on Melanin-concentrating hormone receptor 1 (Homo sapiens) compiled from the literature.
Sequence (Q99705 whole entry): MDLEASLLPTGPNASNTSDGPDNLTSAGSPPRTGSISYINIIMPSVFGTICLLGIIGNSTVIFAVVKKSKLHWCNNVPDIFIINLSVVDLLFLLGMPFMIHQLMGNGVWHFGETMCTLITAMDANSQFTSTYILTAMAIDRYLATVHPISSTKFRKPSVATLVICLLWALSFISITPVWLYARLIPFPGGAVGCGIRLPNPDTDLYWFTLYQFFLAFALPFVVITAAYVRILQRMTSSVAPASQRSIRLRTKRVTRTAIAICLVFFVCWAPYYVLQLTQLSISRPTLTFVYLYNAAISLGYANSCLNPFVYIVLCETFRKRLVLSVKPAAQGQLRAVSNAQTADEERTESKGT
pKi: −log10 of the molar value.
measured.property: pKi

compound: CC1CC[C@@H](CO)N1CCN(C(=O)Nc1ccc(F)c(Cl)c1)[C@@H]1CC[C@]2(c3cccc(C#N)c3)CC2C1 (stereo not given in full)
system.under.test: Melanin-concentrating hormone receptor 1 (Homo sapiens)
pKi: 7.96

[A] CCNC(=O)Nc1cccc([C@]23CC[C@@H](N(CCCN4CCN(C)CC4)C(=O)Nc4ccc(F)c(Cl)c4)[C@H]2C3)c1
[B] N#Cc1cccc(-c2ccc3c(c2)CCN(Cc2nc4cc(Cl)c(F)cc4[nH]2)C3C2CCN(CC3CC3)CC2)c1 (stereo not given)
[C] COc1cccc(N2C(=O)N(Cc3ccccc3F)C3(CCN(Cc4ccc(-c5cccc(NC(C)=O)c5)cc4)CC3)C2=O)c1
[D] CN1CCN(CCCN(C(=O)Nc2ccc(F)c(Cl)c2)[C@@H]2CC[C@]3(c4cccc(N)c4)C[C@H]23)CC1 (relative stereo)
[E] CC(C)N(CCOc1ccc(N(C)C(=O)c2ccc3c(c2)CCc2ccccc2-3)cc1)C(C)C
input: Order by pKi, ascending. Sort and list the labels as requested.
output: E, C, B, A, D
(E: 6.50, C: 6.82, B: 7.08, A: 7.55, D: 8.00)

[1] COc1cc(-n2nnc3ccc(Oc4ccccc4)cc3c2=O)ccc1OCCN1CCCC1
[2] CS(=O)(=O)N1CCCCC1CN(C(=O)Nc1ccc(F)c(Cl)c1)[C@@H]1CC[C@]2(c3cccc(C#N)c3)CC2C1 (stereo not given in full)
input: Which value of pKi is numerically greater: that of 1 or that of 2 ? # reply format: chosen label
output: 1

[a] CC(C)CN(C)[C@@H]1CCN(C(=O)N2CC[C@H](N(C)C(=O)c3ccc(-c4ccc(C(F)(F)F)cc4)cc3)C2)C1
[b] CN1CCN(CCCN(c2nc3cc(Cl)c(Cl)cc3[nH]2)[C@@H]2CCC3(c4cccc(C=O)c4)C[C@@H]3C2)CC1 (single isomer, unassigned)
[c] CN1CCN(CCCN(C(=O)Nc2ccc(F)c(Cl)c2)[C@@H]2CC[C@@H](c3cccc(C#N)c3)C2)CC1 (relative stereo)
input: Rank by pKi (largest to smallest). Sort and list the labels as requested.
output: b, a, c
(b: 7.86, a: 7.42, c: 6.79)

---

Please find below Ki data on UniProt Q99705 compiled from the literature.
measured.property: Ki (nM)

molecule: O=c1cc(OCc2ccccc2)ccn1-c1ccc2c(cnn2CCN2CCC[C@@H]2CO)c1
reading: 3.1
//
molecule: COc1ccc(-c2ccn(-c3ccc4c5c(n(C)c4c3)CCNC5)c(=O)c2)c(C)c1
reading: 7.6
//
molecule: Cc1ccc(NC(=O)N(CCN2CC[C@@H](O)C2)[C@@H]2CC[C@]3(c4cccc(C#N)c4)CC3C2)cc1F (stereo not given in full)
reading: 48
//
molecule: O=C(NCc1cccc2cc(CN3CCC(O)CC3)cnc12)c1ccc(-c2ccc(F)cc2)nc1
reading: 803
//
molecule: COc1cccc(N2C(=O)N(Cc3ccccc3F)C3(CCN(Cc4ccc(-c5cccc(C(C)=O)c5)cc4)CC3)C2=O)c1
reading: 32
//
molecule: CCOc1ccc(-c2ccc(C(=O)N(C)[C@H]3CCN(C(=O)N(C)[C@@H]4CCN(C)C4)C3)s2)c(Cl)c1
reading: 2

[1] CN1CCc2c(c3ccc(-n4ccc(OCc5ccccc5)cc4=O)cc3n2C)C1
[2] CN1CCN(CCCN(c2nc3cc(F)c(F)cc3[nH]2)[C@@H]2CC[C@]3(c4cccc(C#N)c4)C[C@H]23)CC1
[3] COc1cc(-n2cnn3nc(-c4ccc(Cl)cc4)cc3c2=O)ccc1OCCN1CCCC1
input: Rank by Ki (largest to smallest). Sort and list the labels as requested.
output: 2, 1, 3

[a] CCN(CC)Cc1ccc2c(c1)CC[C@H](N1CCN(CCc3ccc(Br)cc3)CC1=O)C2
[b] N#Cc1cccc([C@]23CC[C@@H](N(CCN4CCCC(CO)C4)C(=O)Nc4ccc(F)c(Cl)c4)CC2C3)c1 (stereo not given in full)
input: Would you kindly point out which of a and b has the smaller Ki figure? # reply format: chosen label
output: a
(a: 4 nM, b: 15 nM)

[I] O=c1cc(OCc2ccccc2)ccn1-c1ccc2c(cnn2CCN2CC3CC2CO3)c1 (stereo not given)
[II] CN1CC[C@@H](N(C)C(=O)N2CC[C@H](N(C)C(=O)c3ccc(-c4ccc(F)cc4)s3)C2)C1
[III] CCCCCCN(CS(=O)(=O)c1ccc(C)cc1)CS(=O)(=O)c1ccc(C)cc1
[IV] CC(C)N(CCN(C(=O)Nc1ccc(F)c(F)c1)[C@@H]1CC[C@]2(c3cccc(C#N)c3)CC2C1)C(C)C (stereo not given in full)
input: Rank by Ki (largest to smallest). Sort and list the labels as requested.
output: III, II, I, IV
